Hey, just so you know, these numbers are from ChEMBL document CHEMBL1123289.

# Study Target: Dopamine receptor (Rattus norvegicus) (UniProt P25115+P19020+P30729+P18901+P61169)
# Method Description: Evaluation for contralateral turning in 6-hydroxy-dopamine-lesioned rats administered intraperitoneally at the dose 1 mg/kg Maximum intensity (turnings/min)
# Assay type: functional, organism-based
# Design: dose 1 mg/kg
Measured Max intensity accompanies every entry in the list below.
Experimental Readout: Max intensity (turns min-1)

CCCN(CCCN=[N+]=[N-])C1CCc2c(O)cccc2C1 (stereo unspecified)	6.7
C=CCCCN(CCC)C1CCc2c(O)cccc2C1 (stereo unspecified)	7.7
CCCN(CCCCC#N)C1CCc2c(O)cccc2C1 (stereo unspecified)	10.8
CCCN(CCCC#N)C1CCc2c(O)cccc2C1 (stereo in doubt; (-)-3)	12
CCCN(CCCc1ccccc1)C1CCc2c(O)cccc2C1 (stereo unspecified)	6.6
CCCN(CCCC#N)C1CCc2c(O)cccc2C1 (stereo in doubt; 3)	10.3
CCCN(CCCO)C1CCc2c(O)cccc2C1 (stereo unspecified)	10.2
CN1C[C@@H](CC#N)C[C@@H]2c3cccc4[nH]cc(c34)C[C@H]21 [DELERGOTRILE]	14.4
CCCN(CCC)C1CCc2c(O)cccc2C1 (stereo unspecified) [5-OH-DPAT]	22.7
CCCN(CCCSC)C1CCc2c(O)cccc2C1 (stereo in doubt; 12)	9.8
CCCN(CCCSC)C1CCc2c(O)cccc2C1 (single isomer, unassigned; (-))	15.2

* * *

# Method Description: Dopamine receptor binding affinity by displacing the radioligand [3H]spiroperidol from dopamine receptor.
# Parameters: species or system Bos taurus
pIC50: −log10 of the molar value.
Experimental Readout: pIC50

CCCN(CCCC(=O)OC)C1CCc2c(O)cccc2C1 (configuration not stated)	6.04
CCCN(CCNS(=O)(=O)N(CC)CC)C1CCc2c(O)cccc2C1 (configuration not stated)	6.66
CCCN(CCCC(=O)NC)C1CCc2c(O)cccc2C1 (configuration not stated)	6.08
CCCN(CCCS(C)(=O)=O)C1CCc2c(O)cccc2C1 (configuration not stated)	5.73
CCN(CC)S(=O)(=O)N[C@H]1C[C@@H]2c3cccc4[nH]cc(c34)C[C@H]2N(C)C1 [ETISULERGINE]	7.60
CCCN(CCCSC)C1CCc2c(O)cccc2C1 (stereo in doubt; 12)	6.66
CCCN(CCCc1ccccc1)C1CCc2c(O)cccc2C1 (configuration not stated)	6.85
CCCN(CCCC#N)C1CCc2c(O)cccc2C1 (stereo in doubt; (-)-3)	6.43
CCCN(CCC)C1CCc2c(O)cccc2C1 (configuration not stated) [5-OH-DPAT]	5.87
CN(CCCC#N)C1CCc2c(O)cccc2C1 (configuration not stated)	5.46
CCCN(CCCSC)C1CCc2c(O)cccc2C1 (single isomer, unassigned; (-))	6.64
CCN(CCCC#N)C1CCc2c(O)cccc2C1 (configuration not stated)	6.04
CCCN1C[C@H](CSC)C[C@@H]2c3cccc4[nH]cc(c34)C[C@H]21 [PERGOLIDE]	6.84
CCCN(CCCNC(=O)N(CC)CC)C1CCc2c(O)cccc2C1 (configuration not stated)	5.89
CN1C[C@@H](CC#N)C[C@@H]2c3cccc4[nH]cc(c34)C[C@H]21 [DELERGOTRILE]	6.28
CCCN(CCCNS(=O)(=O)N(C)C)C1CCc2c(O)cccc2C1 (configuration not stated)	6.43
CCCN(CCCCl)C1CCc2c(O)cccc2C1 (configuration not stated)	5.99
CCCN(CCCN=[N+]=[N-])C1CCc2c(O)cccc2C1 (configuration not stated)	6.28
CCCN(CCC#N)C1CCc2c(O)cccc2C1 (configuration not stated)	5.12
CCCN(CCCNC(C)=O)C1CCc2c(O)cccc2C1 (configuration not stated)	5.74
CCCN(CCCC#N)C1CCc2c(O)cccc2C1 (single isomer, unassigned; (+))	5.46
CCCN(CCCCC#N)C1CCc2c(O)cccc2C1 (configuration not stated)	5.82
